Listing of entries alongside the reported microsomal CLint at 1 uM.
experiment: Metabolic stability in human hepatic microsome; assay type: in vitro ADME; conditions: human, microsomes, pH 7.4, CL NADPH(+)
Positions of bridges follow the written chain, without caps; N, C: chain ends. Non-standard residues stand in square brackets, D forms with d. Residues, ends and D or L forms follow the SMILES beside them. *: point of attachment. Arg(Me2s) = CN=C(NC)NCCC[C@H](N)C(=O)O; NMeF = CN[C@@H](Cc1ccccc1)C(=O)O; NMeI = CC[C@H](C)[C@H](NC)C(=O)O; NMeL = CN[C@@H](CC(C)C)C(=O)O; NMeV = CN[C@H](C(=O)O)C(C)C; Piperidide = C1CCN(*)CC1; Sar = CNCC(=O)O; tBu = CC(C)(C)*
Please make sure the unit comes right after the number.

>  <compound>
CC[C@H](C)[C@@H]1NC(=O)[C@H](Cc2ccccc2)N(C)C(=O)[C@H](Cc2ccccc2)NC(=O)[C@H](C(C)C)N(C)C(=O)[C@H](CC(C)C)N(C)C(=O)[C@H](CC(C)C)NC(=O)[C@H](C)NC(=O)C[C@@H](C(=O)N2CCCCC2)NC(=O)[C@H]([C@@H](C)O)NC(=O)CNC(=O)[C@@H]2CCCN2C1=O [DP-14] (AL[NMeL][NMeV]F[NMeF]IPGTD-Piperidide; lactam N-11)

>  <property-measured>
microsomal CLint at 1 uM

>  <reported>
57 µL/min/mg

$$$$
>  <compound>
CC[C@H](C)[C@H]1C(=O)N[C@@H](C)C(=O)N[C@H](C(=O)N2CCCCC2)CC(=O)N[C@H](C)C(=O)N[C@@H](Cc2ccccc2)C(=O)N(C)[C@@H](CC(C)C)C(=O)N[C@@H](CC(C)C)C(=O)N[C@@H](Cc2ccccc2)C(=O)N2CCC[C@H]2C(=O)N[C@@H]([C@@H](C)O)C(=O)N[C@@H](COC(C)(C)C)C(=O)N(C)CC(=O)N1C [DP-88] ([dA]F[NMeL]LFPTS(tBu)[Sar][NMeI]AD-Piperidide; lactam N-12)

>  <property-measured>
microsomal CLint at 1 uM

>  <reported>
32 µL/min/mg

$$$$

For reference, reported microsomal CLint at 1 uM for C/N=C(\NC)NCCC[C@@H]1NC(=O)[C@@H]2CCCN2C(=O)[C@H](CC(C)C)NC(=O)[C@H](CC(C)C)N(C)C(=O)[C@H](Cc2ccccc2)NC(=O)CN(C)C(=O)[C@H](CC(C)C)N(C)C(=O)[C@H](Cc2ccccc2)NC(=O)CN(C)C(=O)C[C@@H](C(=O)N(C)[C@@H](Cc2ccccc2)C(=O)N[C@@H](C)C(=O)N2CCCCC2)NC(=O)[C@H](CC(C)C)NC1=O [DP-597] ([Sar]F[NMeL][Sar]F[NMeL]LP[Arg(Me2s)]LD[NMeF]A-Piperidide; lactam N-11) stands at 12 µL/min/mg

====

test: PAMPA (parallel artificial membrane permeability assay); assay type: in vitro ADME; conditions: PAMPA; membrane permeation rate (Pe); 50 mM MOPSO buffer pH 6.5 with 5.0% glycocholic acid, 37° C., 18 hours; read-out: iPAMPA Pe
Starred links: 1 amine or outer side, 2 acyl side, 3 side chain; linkers in the order of their positions; H or OH if unused. Positions of bridges follow the written chain, without caps; N, C: chain ends. Non-standard residues stand in square brackets, D forms with d. Residues, ends and D or L forms follow the SMILES beside them. *: point of attachment. NMePhe(3-Cl) = CN[C@@H](Cc1cccc(Cl)c1)C(=O)O; NMeF = CN[C@@H](Cc1ccccc1)C(=O)O; NMeβAla = CN(CCC(=O)[*:2])[*:1]; NMeL = CN[C@@H](CC(C)C)C(=O)O; NMeV = CN[C@H](C(=O)O)C(C)C; NMeA = CN[C@@H](C)C(=O)O; Piperidide = C1CCN(*)CC1; Sar = CNCC(=O)O
property-measured: Papp at 18 hours, 50 µM (×10⁻⁶ cm/s)
Hi! Could you send only the number? It should be in ×10⁻⁶ cm/s, unit omitted.

Worked examples follow.
>  <compound>
CC[C@H](C)[C@H](NC(=O)[C@H](C)N(C)C(=O)[C@H](CC(C)C)N(C)C(=O)[C@H](CC(C)C)NC(=O)[C@@H]1CC(=O)N[C@@H](Cc2ccccc2)C(=O)N[C@@H]([C@@H](C)CC)C(=O)N(C)[C@@H](CC(C)C)C(=O)N(C)[C@@H](CC(C)C)C(=O)N[C@@H](Cc2ccccc2)C(=O)N[C@@H]([C@@H](C)O)C(=O)N(C)[C@@H](Cc2cccc(Cl)c2)C(=O)N1)C(=O)N1CCCCC1 [DP-931] (FI[NMeL][NMeL]FT[NMePhe(3-Cl)]DL[NMeL][NMeA]I-Piperidide; lactam N-8)

>  <Papp at 18 hours, 50 µM / ×10⁻⁶ cm/s>
0.1

$$$$
>  <compound>
CC[C@H](C)[C@@H]1NC(=O)[C@H](CC(C)C)N(C)C(=O)[C@H](C(C)C)NC(=O)[C@H](CC(C)C)NC(=O)[C@H](CC(C)C)NC(=O)[C@H]([C@@H](C)O)NC(=O)[C@H](Cc2ccccc2)NC(=O)[C@H](CC(C)C)NC(=O)[C@H](C(C)C)N(C)C(=O)CCN(C)C(=O)C[C@@H](C(=O)N2CCCCC2)NC1=O [DP-412] ([NMeβAla][NMeV]LFTLLV[NMeL]ID-Piperidide; lactam N-11)

>  <Papp at 18 hours, 50 µM / ×10⁻⁶ cm/s>
26

$$$$

API: the following record is the query input.
For reference, reported Papp at 18 hours, 50 µM for CC(C)C[C@@H]1NC(=O)[C@H]([C@@H](C)O)NC(=O)[C@H](CC(C)C)N(C)C(=O)[C@H](Cc2ccccc2)N(C)C(=O)CN(C)C(=O)[C@@H](C)NC(=O)C[C@@H](C(=O)N2CCCCC2)NC1=O [DP-742] ([dA][Sar][NMeF][NMeL]TLD-Piperidide; lactam N-7) stands at 15

====

assay: PAMPA (parallel artificial membrane permeability assay); type: in vitro ADME; conditions: PAMPA, pH 6.5
Positions of bridges follow the written chain, without caps; N, C: chain ends. Non-standard residues stand in square brackets, D forms with d. Residues, ends and D or L forms follow the SMILES beside them. *: point of attachment. NMeF = CN[C@@H](Cc1ccccc1)C(=O)O; NMeL = CN[C@@H](CC(C)C)C(=O)O; NMeV = CN[C@H](C(=O)O)C(C)C; NMeA = CN[C@@H](C)C(=O)O; Piperidide = C1CCN(*)CC1; dNMeA = CN[C@H](C)C(=O)O; β3hA = C[C@H](N)CC(=O)O
property-measured: Papp at 18 hours, 50 µM (×10⁻⁶ cm/s)
Hi! Could you send only the number? It should be in ×10⁻⁶ cm/s, unit omitted.

>  <compound>
CC[C@H](C)[C@H](NC(=O)[C@H](C)N(C)C(=O)[C@@H]1CC(=O)N[C@@H](C)C(=O)N[C@@H]([C@@H](C)CC)C(=O)N(C)[C@@H](C)C(=O)N(C)[C@@H](Cc2ccccc2)C(=O)N[C@@H]([C@@H](C)O)C(=O)N(C)[C@@H](Cc2ccccc2)C(=O)N[C@@H](CC(C)C)C(=O)N2CCC[C@H]2C(=O)N1)C(=O)N1CCCCC1 [DP-668] (AI[NMeA][NMeF]T[NMeF]LPD[NMeA]I-Piperidide; lactam N-9)

>  <result-unit>
×10⁻⁶ cm/s

>  <reported>
26

$$$$
>  <compound>
CC[C@H](C)[C@@H]1NC(=O)[C@H](CC(C)C)NC(=O)[C@H](CC(C)C)NC(=O)[C@H](C)N(C)C(=O)[C@H](C(C)C)NC(=O)[C@H](C)NC(=O)C[C@@H](C(=O)N2CCCCC2)NC(=O)[C@H](CC(C)C)NC(=O)[C@H]([C@@H](C)O)NC(=O)[C@@H]2CCCN2C(=O)[C@H](CC(C)C)NC(=O)[C@H](Cc2ccccc2)NC1=O [DP-4] (AV[NMeA]LLIFLPTLD-Piperidide; lactam N-12)

>  <result-unit>
×10⁻⁶ cm/s

>  <reported>
11

$$$$

API: the following record is the query input.
For reference, reported Papp at 18 hours, 50 µM for CC[C@H](C)[C@@H]1NC(=O)[C@H](C)N(C)C(=O)[C@H]([C@@H](C)O)NC(=O)[C@H](C(C)C)N(C)C(=O)[C@H](CC(C)C)NC(=O)[C@H](CC(C)C)N(C)C(=O)[C@@H](C)N(C)C(=O)C[C@H](C)NC(=O)[C@H](Cc2ccccc2)NC(=O)[C@H](C)NC(=O)[C@H](Cc2ccccc2)N(C)C1=O [DP-769] (cyclo(AF[β3hA][dNMeA][NMeL]L[NMeV]T[NMeA]I[NMeF])) stands at 53

Origin of values: patent US9409952B2
